# Assay comment: solubility in water / aqueous systems
# Format: physicochemical
Property label: solubility

Compound	Property label	Value
CC(C)(C)NC(=O)N[C@H](C(=O)N1C[C@H]2[C@@H]([C@H]1C(=O)NC(CC1CCC1)C(=O)C(N)=O)C2(C)C)C(C)(C)C (stereo partly shown) [Formula Ia]	solubility	~600 µg/mL
